Property: percentage of EdU-negative; scope: individual sequences
tested on: hTERT-HMEC; test: percentage of EdU-negative (G0-arrested) nuclei per well, 72 h; higher = more G0 arrest; conditions: protein concentration 0.225 µM; reference: sequence is the full UniProt precursor, the tested protein was the secreted form or ectodomain
ENDPOINT_LABEL: percentage of EdU-negative

POLYMER_SEQUENCE: MDMAWQMMQLLLLALVTAAGSAQPRSARARTDLLNVCMNAKHHKTQPSPEDELYGQCSPWKKNACCTASTSQELHKDTSRLYNFNWDHCGKMEPTCKRHFIQDSCLYECSPNLGPWIRQVNQSWRKERILNVPLCKEDCERWWEDCRTSYTCKSNWHKGWNWTSGINECPAGALCSTFESYFPTPAALCEGLWSHSFKVSNYSRGSGRCIQMWFDSAQGNPNEEVAKFYAAAMNAGAPSRGIIDS [A0A087WXL1]
TARGET_OF_ASSAY: hTERT-HMEC
ENDPOINT_LABEL: percentage of EdU-negative
ENDPOINT_RESULT: 4.93%
//
POLYMER_SEQUENCE: MKLHYVAVLTLAILMFLTWLPESLSCNKALCASDVSKCLIQELCQCRPGEGNCSCCKECMLCLGALWDECCDCVGMCNPRNYSDTPPTSKSTVEELHEPIPSLFRALTEGDTQLNWNIVSFPVAEELSHHENLVSFLETVNQPHHQNVSVPSNNVHAPYSSDKEHMCTVVYFDDCMSIHQCKISCESMGASKYRWFHNACCECIGPECIDYGSKTVKCMNCMF [Q9GZX9]
TARGET_OF_ASSAY: hTERT-HMEC
ENDPOINT_LABEL: percentage of EdU-negative
ENDPOINT_RESULT: 12.6%
//
POLYMER_SEQUENCE: MAQRMTTQLLLLLVWVAVVGEAQTRIAWARTELLNVCMNAKHHKEKPGPEDKLHEQCRPWRKNACCSTNTSQEAHKDVSYLYRFNWNHCGEMAPACKRHFIQDTCLYECSPNLGPWIQQVDQSWRKERVLNVPLCKEDCEQWWEDCRTSYTCKSNWHKGWNWTSGFNKCAVGAACQPFHFYFPTPTVLCNEIWTHSYKVSNYSRGSGRCIQMWFDPAQGNPNEEVARFYAAAMSGAGPWAAWPFLLSLALMLLWLLS
TARGET_OF_ASSAY: hTERT-HMEC
ENDPOINT_LABEL: percentage of EdU-negative
ENDPOINT_RESULT: 10.3%
//
POLYMER_SEQUENCE: MAVRQWVIALALAALLVVDREVPVAAGKLPFSRMPICEHMVESPTCSQMSNLVCGTDGLTYTNECQLCLARIKTKQDIQIMKDGKC
TARGET_OF_ASSAY: hTERT-HMEC
ENDPOINT_LABEL: percentage of EdU-negative
ENDPOINT_RESULT: 4.68%
//
POLYMER_SEQUENCE: MKLAALLGLCVALSCSSAAAFLVGSAKPVAQPVAALESAAEAGAGTLANPLGTLNPLKLLLSSLGIPVNHLIEGSQKCVAELGPQAVGAVKALKALLGALTVFG [Q96QR1]
TARGET_OF_ASSAY: hTERT-HMEC
ENDPOINT_LABEL: percentage of EdU-negative
ENDPOINT_RESULT: 5.2%
//
POLYMER_SEQUENCE: MQLPLALCLVCLLVHTAFRVVEGQGWQAFKNDATEIIPELGEYPEPPPELENNKTMNRAENGGRPPHHPFETKDVSEYSCRELHFTRYVTDGPCRSAKPVTELVCSGQCGPARLLPNAIGRGKWWRPSGPDFRCIPDRYRAQRVQLLCPGGEAPRARKVRLVASCKCKRLTRFHNQSELKDFGTEAARPQKGRKPRPRARSAKANQAELENAY [Q9BQB4]
TARGET_OF_ASSAY: hTERT-HMEC
ENDPOINT_LABEL: percentage of EdU-negative
ENDPOINT_RESULT: 18.6%
//
POLYMER_SEQUENCE: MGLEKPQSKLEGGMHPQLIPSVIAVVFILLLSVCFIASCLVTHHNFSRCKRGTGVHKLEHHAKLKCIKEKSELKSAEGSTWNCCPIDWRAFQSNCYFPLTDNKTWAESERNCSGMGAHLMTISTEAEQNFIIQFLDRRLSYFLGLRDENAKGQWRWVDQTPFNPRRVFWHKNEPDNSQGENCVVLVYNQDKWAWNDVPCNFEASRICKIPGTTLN [Q8WXI8]
TARGET_OF_ASSAY: hTERT-HMEC
ENDPOINT_LABEL: percentage of EdU-negative
ENDPOINT_RESULT: 6.07%
//
POLYMER_SEQUENCE: MCGPDDRCPARWPGPGRAVKCGKGLAAARPGRVERGGAQRGGAGLELHPLLGGRTWRAARDADGCEALGTVAVPFDDDDKIVGGYTCEENSLPYQVSLNSGSHFCGGSLISEQWVVSAAHCYKTRIQVRLGEHNIKVLEGNEQFINAAKIIRHPKYNRDTLDNDIMLIKLSSPAVINARVSTISLPTTPPAAGTECLISGWGNTLSFGADYPDELKCLDAPVLTQAECKASYPGKITNSMFCVGFLEGGKDSCQRDSGGPVVCNGQLQGVVSWGHGCAWKNRPGVYTKVYNYVDWIKDTIAANS
TARGET_OF_ASSAY: hTERT-HMEC
ENDPOINT_LABEL: percentage of EdU-negative
ENDPOINT_RESULT: 7.39%
//
POLYMER_SEQUENCE: MKVSVAALSCLMLVTALGSQARVTKDAETEFMMSKLPLENPVLLDRFHATSADCCISYTPRSIPCSLLESYFETNSECSKPGVIFLTKKGRRFCANPSDKQVQVCMRMLKLDTRIKTRKN
TARGET_OF_ASSAY: hTERT-HMEC
ENDPOINT_LABEL: percentage of EdU-negative
ENDPOINT_RESULT: 5.12%
//
POLYMER_SEQUENCE: MAAALFVLLGFALLGTHGASGAAGFVQAPLSQQRWVGGSVELHCEAVGSPVPEIQWWFEGQGPNDTCSQLWDGARLDRVHIHATYHQHAASTISIDTLVEEDTGTYECRASNDPDRNHLTRAPRVKWVRAQAVVLVLEPGTVFTTVEDLGSKILLTCSLNDSATEVTGHRWLKGGVVLKEDALPGQKTEFKVDSDDQWGEYSCVFLPEPMGTANIQLHGPPRVKAVKSSEHINEGETAMLVCKSESVPPVTDWAWYKITDSEDKALMNGSESRFFVSSSQGRSELHIENLNMEADPGQYRCNGTSSKGSDQAIITLRVRSHLAALWPFLGIVAEVLVLVTIIFIYEKRRKPEDVLDDDDAGSAPLKSSGQHQNDKGKNVRQRNSS
TARGET_OF_ASSAY: hTERT-HMEC
ENDPOINT_LABEL: percentage of EdU-negative
ENDPOINT_RESULT: 5.94%
//
POLYMER_SEQUENCE: MRPLLCALTGLALLRAAGSLAAAEPFSPPRGDSAQSTACDRHMAVQRRLDVMEEMVEKTVDHLGTEVKGLLGLLEELAWNLPPGPFSPAPDLLGDGF [Q5JTB6]
TARGET_OF_ASSAY: hTERT-HMEC
ENDPOINT_LABEL: percentage of EdU-negative
ENDPOINT_RESULT: 5.25%
//
POLYMER_SEQUENCE: MKLNLVQIFFMLLMLLLGLGMGLGLGLHMATAVLEESDQPLNEFWSSDSQDKAEATEEGDGTQTTETLVLSNKEVVQPGWPEDPILGEDEVGGNKMLRASALFQSNKDYLRLDQTDRECNDMMAHKMKEPSQSCIAQYAFIHEDLNTVKAVCNSPVIACELKGGKCHKSSRPFDLTLCELSQPDQVTPNCNYLTSVIKKHIIITCNDMKRQLPTGQ [Q5GAN6]
TARGET_OF_ASSAY: hTERT-HMEC
ENDPOINT_LABEL: percentage of EdU-negative
ENDPOINT_RESULT: 5.77%
//
POLYMER_SEQUENCE: MMPKHCFLGFLISFFLTGVAGTQSTHESLKPQRVQFQSRNFHNILQWQPGRALTGNSSVYFVQYKIMFSCSMKSSHQKPSGCWQHISCNFPGCRTLAKYGQRQWKNKEDCWGTQELSCDLTSETSDIQEPYYGRVRAASAGSYSEWSMTPRFTPWWETKIDPPVMNITQVNGSLLVILHAPNLPYRYQKEKNVSIEDYYELLYRVFIINNSLEKEQKVYEGAHRAVEIEALTPHSSYCVVAEIYQPMLDRRSQRSEERCVEIP [Q969J5]
TARGET_OF_ASSAY: hTERT-HMEC;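 note: secreted proteins added to cultured cells, EdU pulse at the end, nuclei found by Hoechst imaging, EdU status from nuclear versus surrounding ring intensity ratio, PBS as neutral control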
ENDPOINT_LABEL: percentage of EdU-negative
ENDPOINT_RESULT: 5.48%

Measured values drawn from the supplement of paper PMC11316812 for this set.
